target: human EGF-R (Homo sapiens, UniProt P00533); assay: Inhibition of EGF-dependent proliferation of F/L-HERc cells; conditions: human EGF 20 ng/ml, 48 hours
Sequence (P00533 25-1210): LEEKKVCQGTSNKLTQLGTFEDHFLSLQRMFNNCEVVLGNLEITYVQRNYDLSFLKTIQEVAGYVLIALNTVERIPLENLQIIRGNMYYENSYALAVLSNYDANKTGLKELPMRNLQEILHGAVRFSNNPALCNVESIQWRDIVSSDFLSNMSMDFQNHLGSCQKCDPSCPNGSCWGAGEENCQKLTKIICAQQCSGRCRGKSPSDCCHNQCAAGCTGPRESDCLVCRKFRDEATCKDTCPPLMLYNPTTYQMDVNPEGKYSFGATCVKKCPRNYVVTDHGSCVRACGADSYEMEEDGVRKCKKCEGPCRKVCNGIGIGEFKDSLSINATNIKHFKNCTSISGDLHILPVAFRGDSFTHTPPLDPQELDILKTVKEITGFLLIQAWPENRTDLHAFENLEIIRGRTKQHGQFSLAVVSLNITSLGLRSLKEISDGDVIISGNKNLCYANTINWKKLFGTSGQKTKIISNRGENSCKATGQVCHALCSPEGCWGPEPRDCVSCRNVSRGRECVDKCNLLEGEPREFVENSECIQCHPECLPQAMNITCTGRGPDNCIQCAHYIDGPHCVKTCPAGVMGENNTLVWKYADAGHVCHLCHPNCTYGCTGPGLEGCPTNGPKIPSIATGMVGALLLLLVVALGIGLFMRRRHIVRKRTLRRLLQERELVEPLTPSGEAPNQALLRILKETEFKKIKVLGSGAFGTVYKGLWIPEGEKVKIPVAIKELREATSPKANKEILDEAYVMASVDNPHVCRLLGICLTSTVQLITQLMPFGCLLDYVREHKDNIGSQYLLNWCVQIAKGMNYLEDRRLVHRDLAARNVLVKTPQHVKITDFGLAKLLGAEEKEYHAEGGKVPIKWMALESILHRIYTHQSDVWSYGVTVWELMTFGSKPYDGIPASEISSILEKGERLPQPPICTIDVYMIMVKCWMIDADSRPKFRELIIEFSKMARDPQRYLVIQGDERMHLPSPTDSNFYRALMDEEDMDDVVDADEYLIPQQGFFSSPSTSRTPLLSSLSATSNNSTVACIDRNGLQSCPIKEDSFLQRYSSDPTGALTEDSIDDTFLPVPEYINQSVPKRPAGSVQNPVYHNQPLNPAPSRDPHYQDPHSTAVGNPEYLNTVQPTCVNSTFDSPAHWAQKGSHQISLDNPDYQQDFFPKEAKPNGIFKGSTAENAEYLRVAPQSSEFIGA
Classify by IC50. Ranges: lower range (below 8 nM), middle range (8 nM to below 50 nM), upper range (50 nM or more)

Would you please look over these solved cases?
COMPOUND | TARGET DESC | LABEL VALUE
N#Cc1cc(Nc2ncnc3cnc(N[C@H]4CC[C@H](O)CC4)nc23)ccc1N | human EGF-R (Homo sapiens, UniProt P00533) | middle range
O=[N+]([O-])c1cccc(Nc2ncnc3cnc(NC4CC4)nc23)c1 | human EGF-R (Homo sapiens, UniProt P00533) | middle range
Cc1cccc(Nc2ncnc3cnc(NC4CCOCC4)nc23)c1 | human EGF-R (Homo sapiens, UniProt P00533) | middle range
Nc1c(Cl)cc(Nc2ncnc3cnc(N[C@H]4CC[C@H](O)CC4)nc23)cc1Cl | human EGF-R (Homo sapiens, UniProt P00533) | lower range
N#Cc1cccc(Nc2ncnc3cnc(NC4CC4)nc23)c1 | human EGF-R (Homo sapiens, UniProt P00533) | middle range
Cc1cccc(Nc2ncnc3cnc(NCC4COCCOCCOCCOCCO4)nc23)c1 (centres unmarked) | human EGF-R (Homo sapiens, UniProt P00533) | upper range

Input Cc1cccc(Nc2ncnc3cnc(NC(C)CO)nc23)c1 (centres unmarked) ; output its category middle range

Also Cc1cccc(Nc2ncnc3cnc(Nc4ccc(N5CCCC5CO)cc4)nc23)c1 (centres unmarked) , if possible. lower range

Record: CC(CO)(CO)Nc1ncc2ncnc(Nc3ccc(Cl)c(F)c3)c2n1 lower range

Also need C#CCNc1ncc2ncnc(Nc3cccc(C)c3)c2n1 , thanks. middle range

Entry Cc1cccc(Nc2ncnc3cnc(N4CCN(c5ccccc5)CC4)nc23)c1 please upper range
